Taken from ChEMBL document CHEMBL1961873.

# Tested Target: NUAK family SNF1-like kinase 1 (Homo sapiens)
# Experimental Context: at 1 µM
# Description: GSK_PKIS: ARK5 mean inhibition at 1 uM [Nanosyn]
Readout Type: inhibition (%)
Respond with the bare value in %.

compound=Cc1ccc(O)cc1Nc1ccnc2cc(-c3ccccn3)ccc12 measured_result=7.44
compound=COc1cccc(-n2ncc3c(N/N=C/c4ccc(F)cc4)ncnc32)c1 measured_result=16.9
compound=COc1cc(/C=N/Nc2ncnc3[nH]ncc23)ccc1O measured_result=27.6

Shifting focus to the compound that follows.
Record summary for `Nc1nc(-c2ccc(F)cc2)c(-c2ccc3ncccc3n2)s1` : reported inhibition = 7.09

---

# Tested Target: Protein kinase C alpha type (Homo sapiens) (UniProt P17252);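 also: each value is the mean percent inhibition of PKC-alpha kinase activity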
# Experimental Context: at 0.1 µM
Readout Type: inhibition (%)
Please reply with the bare figure in % and do not write the unit itself.

query_smiles=COc1cc(Nc2nccc(Nc3ccc4c(C)n[nH]c4c3)n2)cc(OC)c1OC measured_result=1.29
query_smiles=O=C(O[C@H]1CN[C@H](C#Cc2cc3ncnc(Nc4ccc(Cc5ccccc5)cc4)c3s2)C1)N1CCOCC1 measured_result=0.96
query_smiles=CC(=O)Nc1cccc(C#Cc2cncnc2Nc2ccc(OCc3cccc(F)c3)c(Cl)c2)c1 measured_result=0.9

Recorded result, `NS(=O)(=O)c1ccc(N/N=C2\C(=O)Nc3ccc4ncccc4c32)cc1` , inhibition: 0.41

Entry `O=S(=O)(CCNCc1ccc(-c2ccc3ncnc(Nc4ccc(OCc5cccc(F)c5)c(Cl)c4)c3c2)o1)c1ccccc1` , inhibition reported as 1.39

---

Quick list: inhibition per entry.
# Tested Target: Mitogen-activated protein kinase 1 (Homo sapiens) (UniProt P28482);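 also: reported figure is an averaged percent inhibition of the kinase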
# Sequence (P28482 whole entry): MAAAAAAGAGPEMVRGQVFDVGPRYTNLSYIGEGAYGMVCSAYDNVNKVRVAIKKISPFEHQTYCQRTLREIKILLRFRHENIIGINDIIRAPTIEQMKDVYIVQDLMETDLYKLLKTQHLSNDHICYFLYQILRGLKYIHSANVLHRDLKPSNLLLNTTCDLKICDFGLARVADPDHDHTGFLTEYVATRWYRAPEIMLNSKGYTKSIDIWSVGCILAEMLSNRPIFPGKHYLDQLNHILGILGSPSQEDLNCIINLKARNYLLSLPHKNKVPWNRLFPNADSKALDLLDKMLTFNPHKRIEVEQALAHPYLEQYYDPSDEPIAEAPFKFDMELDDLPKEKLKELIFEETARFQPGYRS
# Experimental Context: at 0.1 µM
Report the figure in % without appending any unit label.

Example cases with answers are listed next.
compound=CC(C)COC(=O)c1ccc2c(c1)/C(=C/Nc1ccc(S(N)(=O)=O)cc1)C(=O)N2 readout_unit=% measured_result=2.73
compound=Nc1ncc(-c2cccc(S(N)(=O)=O)c2)c2scc(-c3ccc(F)c(Cl)c3)c12 readout_unit=% measured_result=6.27

Reading of inhibition for `CCCN(CCS(C)(=O)=O)Cc1ccc(-c2ccc3ncnc(Nc4ccc(OCc5cccc(F)c5)c(Cl)c4)c3c2)o1` with Mitogen-activated protein kinase 1 (Homo sapiens) (UniProt P28482): 1.68

Response field inhibition (Mitogen-activated protein kinase 1 (Homo sapiens) (UniProt P28482)) for item `Cc1ccc2c(-c3ccnc(Nc4ccccc4)n3)c(-c3ccc(F)cc3)nn2n1` : 4.23

---

# Tested Target: Casein kinase I isoform alpha (Homo sapiens) (UniProt P48729)
# Sequence (P48729 2-337 limits assumed): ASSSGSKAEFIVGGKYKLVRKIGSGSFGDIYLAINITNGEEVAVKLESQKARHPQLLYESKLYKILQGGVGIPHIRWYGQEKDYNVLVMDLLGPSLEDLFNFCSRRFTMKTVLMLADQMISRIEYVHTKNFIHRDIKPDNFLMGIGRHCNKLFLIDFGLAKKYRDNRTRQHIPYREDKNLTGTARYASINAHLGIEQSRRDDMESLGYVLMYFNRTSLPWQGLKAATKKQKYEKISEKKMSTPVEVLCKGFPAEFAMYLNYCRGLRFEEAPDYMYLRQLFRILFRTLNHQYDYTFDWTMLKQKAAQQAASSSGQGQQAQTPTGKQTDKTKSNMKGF
# Experimental Context: at 1 µM
Readout Type: inhibition (%)
Kindly answer with a numeric value in %, unit omitted.

query_smiles=CC(=O)Nc1cccc(C#Cc2cncnc2Nc2ccc(OCc3cccc(F)c3)c(Cl)c2)c1 tested_target="Casein kinase I isoform alpha (Homo sapiens) (UniProt P48729)" readout_unit=% measured_result=3.28

# compound `COc1cccc(-n2ncc3c(N/N=C/c4ccc(F)cc4)ncnc32)c1` ; its inhibition = 4.98

Data point: `Nc1nc(-c2cccc(Cl)c2)c(-c2ccc3ncccc3n2)s1` ; inhibition = 5.89

Please fill in: inhibition reported for `Nc1nc(-c2ccc(F)cc2)c(-c2ccc3ncccc3n2)s1` = 15.2

---

# Tested Target: Tyrosine-protein kinase ABL2 (Homo sapiens)
# Experimental Context: at 1 µM
# Description: GSK_PKIS: ARG mean inhibition at 1 uM [Nanosyn]
Readout Type: inhibition
Remember to follow the number with its unit.

query_smiles=[O-][S+]1CCN(Cc2ccc(-c3ccc4ncnc(Nc5ccc(OCc6cccc(F)c6)c(Cl)c5)c4c3)o2)CC1 measured_result=7.14%

Could you now look at the following molecule, please?
The measured inhibition associated with `COc1cc(N2CCN(C(C)C)CC2)ccc1Nc1nc(Nc2ccc(F)cc2C(N)=O)c2cc[nH]c2n1` reads 2.78%

---

# Tested Target: Fibroblast growth factor receptor 3 (Homo sapiens);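 also: values reported are mean percent inhibition of FGFR3 activity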
# Experimental Context: at 1 µM
Given measured inhibition, output label 1 if it is greater than or equal to 4% and label 0 if not.

compound=CN(C)CCOc1ccc(-c2nc(-c3ccncc3)c(-c3ccc4c(c3)CC/C4=N\O)[nH]2)cc1 label_value="label 1"
compound=CCCN1CCC(c2ccc(Nc3nc(Nc4cc(F)ccc4C(N)=O)c4cc[nH]c4n3)c(OC)c2)CC1 label_value="label 0"
compound=N#Cc1c(NC(=O)c2ccc(F)cc2)sc2c1CCCC2 label_value="label 0"

Ask | Could you verify whether the entry `COC(=O)c1sc(-n2cnc3cc(OC)c(OC)cc32)cc1OCc1ccccc1C(F)(F)F` shows inhibition of no less than 4%?
Reply | label 1

---

# Tested Target: Tyrosine-protein kinase Lyn (Homo sapiens) (UniProt P07948);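 also: mean inhibition of the LYN B splice variant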
# Sequence (P07948 2-512 limits assumed): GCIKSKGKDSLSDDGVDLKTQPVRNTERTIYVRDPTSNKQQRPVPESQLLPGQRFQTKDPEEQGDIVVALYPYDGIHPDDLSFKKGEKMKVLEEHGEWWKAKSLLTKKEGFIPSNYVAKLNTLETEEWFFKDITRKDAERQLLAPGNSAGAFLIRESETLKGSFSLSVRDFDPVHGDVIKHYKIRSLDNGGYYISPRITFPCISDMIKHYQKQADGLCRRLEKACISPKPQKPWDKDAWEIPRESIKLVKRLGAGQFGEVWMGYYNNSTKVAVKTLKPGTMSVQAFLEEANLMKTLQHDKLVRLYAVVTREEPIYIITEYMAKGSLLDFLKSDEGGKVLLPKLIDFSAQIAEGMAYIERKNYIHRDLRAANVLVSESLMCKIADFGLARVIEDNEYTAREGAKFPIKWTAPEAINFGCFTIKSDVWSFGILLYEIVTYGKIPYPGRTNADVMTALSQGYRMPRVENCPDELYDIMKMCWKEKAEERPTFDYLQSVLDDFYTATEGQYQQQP
# Experimental Context: at 0.1 µM
# Description: GSK_PKIS: LYN B (splice variant) mean inhibition at 0.1 uM [Nanosyn]
inhibition of 2% or higher: 1 (yes). Under 2%: 0 (no).

Some entries whose results are on file:
query_smiles=CNC(=O)c1cc(-c2ccc(F)cc2)cc(-c2ccc(S(=O)(=O)N3CCCC3)cc2)c1N label_value="0 (no)"
query_smiles=COc1cc(/C=N/Nc2ncnc3[nH]ncc23)ccc1O label_value="1 (yes)"
query_smiles=c1ccc(-c2nc3n(c2-c2ccc4c(c2)OCO4)CCC3)nc1 label_value="0 (no)"
query_smiles=CC(=O)Nc1cccc(C#Cc2cncnc2Nc2ccc(OCc3cccc(F)c3)c(Cl)c2)c1 label_value="0 (no)"

Ask | State whether the measured inhibition reaches 2%, counting equality as reaching it, for `CCCN(CCS(C)(=O)=O)Cc1ccc(-c2ccc3ncnc(Nc4ccc(OCc5cccc(F)c5)c(Cl)c4)c3c2)o1`
Reply | 1 (yes)

---

# Tested Target: Serine/threonine-protein kinase 4 (Homo sapiens);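 also: mean inhibition of MST1, part of the GSK PKIS dataset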
# Experimental Context: at 1 µM
Readout Type: inhibition (%)
# output: bare number, implied unit %

These solved cases illustrate the format of a correct answer.
query_smiles=Cc1ccc(O)cc1Nc1ccnc2cc(-c3ccccn3)ccc12 measured_result=8.81
query_smiles=CN1CCC(n2cnc(-c3ccc(F)cc3)c2-c2ccnc(Nc3ccccc3)n2)CC1 measured_result=6.2
query_smiles=CC(C)COC(=O)c1ccc2c(c1)/C(=C/Nc1ccc(S(N)(=O)=O)cc1)C(=O)N2 measured_result=81.5
query_smiles=CNC(=O)c1cncc(/C=C/c2ccccc2Cl)c1 measured_result=7.5

The reported inhibition of the compound `N#Cc1c(NC(=O)CN2CCOCC2)sc2c1CCCC2` was 8.28

// `COc1ccc(CNC(=O)c2ccc(-c3cc(-c4nnc(C)o4)ccc3C)cc2)cc1` : inhibition value = 14.7

---

# Tested Target: SRSF protein kinase 3 (Homo sapiens) (UniProt Q9UPE1);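 also: values are mean inhibition of MSSK1 (alias of SRPK3)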
# Sequence (Q9UPE1 whole entry): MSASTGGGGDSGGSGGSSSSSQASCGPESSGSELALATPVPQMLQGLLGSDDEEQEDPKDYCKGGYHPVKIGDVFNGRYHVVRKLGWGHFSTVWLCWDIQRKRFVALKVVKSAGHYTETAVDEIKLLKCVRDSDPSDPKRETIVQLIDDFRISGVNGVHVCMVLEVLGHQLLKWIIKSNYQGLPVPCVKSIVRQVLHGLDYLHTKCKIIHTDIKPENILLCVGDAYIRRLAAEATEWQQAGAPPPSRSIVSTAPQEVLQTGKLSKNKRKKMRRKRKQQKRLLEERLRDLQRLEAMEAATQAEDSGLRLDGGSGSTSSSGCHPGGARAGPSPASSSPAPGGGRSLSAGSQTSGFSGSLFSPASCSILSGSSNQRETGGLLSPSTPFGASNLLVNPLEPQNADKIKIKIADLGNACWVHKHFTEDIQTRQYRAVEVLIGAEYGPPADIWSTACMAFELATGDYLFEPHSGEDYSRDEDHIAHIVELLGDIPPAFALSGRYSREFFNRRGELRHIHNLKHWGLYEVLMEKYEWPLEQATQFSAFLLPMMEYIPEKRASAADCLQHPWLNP
# Experimental Context: at 1 µM
# reported inhibition; entries follow

Summary for this compound, `O=C(O[C@H]1CN[C@H](C#Cc2cc3ncnc(Nc4ccc(Cc5ccccc5)cc4)c3s2)C1)N1CCOCC1` : inhibition is -1.14%

Notebook: `CCCN(CCS(C)(=O)=O)Cc1ccc(-c2ccc3ncnc(Nc4ccc(OCc5cccc(F)c5)c(Cl)c4)c3c2)o1` , inhibition read as -0.61%

For this compound ( `c1cc(-c2cnn3nc(N4CCOCC4)ccc23)nc(NC2CC2)n1` ), measured inhibition is 9.24%

---

# Tested Target: Ribosomal protein S6 kinase alpha-1 (Homo sapiens);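 also: mean inhibition of RSK1, reported in the GSK PKIS screen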
# Experimental Context: at 1 µM
Readout Type: inhibition (%)
Use % as the unit, but write only the number.

// solved cases for inhibition follow
query_smiles=CCNC(=O)O[C@H]1CN[C@H](C#Cc2cc3ncnc(Nc4ccc(OCc5cccc(F)c5)c(Cl)c4)c3s2)C1 readout_type=inhibition measured_result=0.05
query_smiles=CCN(CC)S(=O)(=O)c1ccc(OC)c(Nc2ncc(-c3ccccc3)o2)c1 readout_type=inhibition measured_result=5.22
query_smiles=N#Cc1c(NC(=O)c2ccc(F)cc2)sc2c1CCCC2 readout_type=inhibition measured_result=2.35

Entry `c1cc(-c2cnn3nc(N4CCOCC4)ccc23)nc(NC2CC2)n1` ; inhibition = 8.38

The molecule `COc1ccc(-c2oc3ncnc(N)c3c2-c2ccc(NC(=O)Nc3cc(C(F)(F)F)ccc3F)cc2)cc1` showed inhibition equal to 61.3

Form field inhibition, entry `COc1ccc(-c2nn3ncccc3c2-c2ccnc(Nc3ccc4c(c3)OCCO4)n2)cc1` : -1.03

The reported inhibition of the molecule `NS(=O)(=O)c1ccc(Nc2ncc(-c3ccccc3)o2)cc1` was 6.42

Entry `Fc1cccc(COc2ccc(Nc3ncnc4sc(-c5ccco5)cc34)cc2Cl)c1` ; inhibition = 2.91

Record `CCCN1CCC(c2ccc(Nc3nc(Nc4cc(F)ccc4C(N)=O)c4cc[nH]c4n3)c(OC)c2)CC1` , field inhibition: 69.7

Reported inhibition ( `Clc1ccc(-c2nn3ncccc3c2-c2ccnc(Nc3ccccc3)n2)cc1` ) = 2.48

---

Examples of compounds with documented inhibition follow.
# Tested Target: Serine/threonine-protein kinase BRSK1 (Homo sapiens);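 also: each value is a mean percent inhibition of BRSK1 kinase activity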
# Sequence (whole entry): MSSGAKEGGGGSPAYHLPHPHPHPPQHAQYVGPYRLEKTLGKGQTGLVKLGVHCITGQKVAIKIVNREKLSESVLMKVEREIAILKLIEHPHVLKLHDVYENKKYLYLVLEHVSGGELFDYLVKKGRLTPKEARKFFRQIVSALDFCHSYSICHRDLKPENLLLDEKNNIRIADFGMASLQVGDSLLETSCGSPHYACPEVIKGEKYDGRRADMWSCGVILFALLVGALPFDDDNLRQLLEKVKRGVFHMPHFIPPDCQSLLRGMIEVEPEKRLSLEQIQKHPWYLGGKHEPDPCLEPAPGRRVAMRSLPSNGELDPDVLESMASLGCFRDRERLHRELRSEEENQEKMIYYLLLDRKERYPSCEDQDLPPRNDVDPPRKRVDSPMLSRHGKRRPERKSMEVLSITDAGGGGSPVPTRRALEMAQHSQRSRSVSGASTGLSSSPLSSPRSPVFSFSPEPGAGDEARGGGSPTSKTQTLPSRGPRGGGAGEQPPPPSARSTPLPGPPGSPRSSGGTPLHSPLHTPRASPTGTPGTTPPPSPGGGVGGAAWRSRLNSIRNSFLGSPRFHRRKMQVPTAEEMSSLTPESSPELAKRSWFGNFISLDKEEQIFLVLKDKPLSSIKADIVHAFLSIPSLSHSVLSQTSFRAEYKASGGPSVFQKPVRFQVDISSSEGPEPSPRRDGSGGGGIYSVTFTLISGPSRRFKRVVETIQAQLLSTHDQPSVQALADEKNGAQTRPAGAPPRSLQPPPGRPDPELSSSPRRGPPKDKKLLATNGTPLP
# Experimental Context: at 1 µM
Respond numerically; units are % and should not be typed.

Here is how some compounds turned out for inhibition.
query_smiles=CN1CCC(n2cnc(-c3ccc(F)cc3)c2-c2ccnc(Nc3ccccc3)n2)CC1 readout_unit=% measured_result=0.41
query_smiles=CCN1CCC(CC(=O)Nc2n[nH]c3nnc(-c4cccc(F)c4F)cc23)CC1 readout_unit=% measured_result=3.84
query_smiles=CCn1c(-c2nonc2N)nc2ccccc21 readout_unit=% measured_result=8.27
query_smiles=Cc1cccc(Nc2ncc(-c3ccccc3)o2)c1 readout_unit=% measured_result=0.64
query_smiles=CCN(CC)S(=O)(=O)c1ccc(OC)c(Nc2ncc(-c3ccccc3)o2)c1 readout_unit=% measured_result=0.94

The recorded inhibition for `COc1ccc(-c2nn3ncccc3c2-c2ccnc(Nc3ccc4c(c3)OCCO4)n2)cc1` is 2.44

inhibition reported for this compound `c1ccc(-c2nc3n(c2-c2ccc4c(c2)OCO4)CCC3)nc1` : 2.54

Looking up `CS(=O)(=O)CCNCc1ccc(-c2ccc3ncnc(Nc4ccc(OCc5ccccc5)c(C(F)(F)F)c4)c3c2)o1` , I see its inhibition listed as 4.02

Query `CNC(=O)c1cc(-c2ccc(F)cc2)cc(-c2ccc(S(=O)(=O)N3CCCC3)cc2)c1N` yields inhibition of -2.02

Value of measured inhibition for the entry `CCNC(=O)O[C@H]1CN[C@H](C#Cc2cc3ncnc(Nc4ccc(OCc5cccc(F)c5)c(Cl)c4)c3s2)C1` : 2.32
